Test system: NK-92 (IL-2 2.5 ng/mL)
Experimental Details: percent inhibition of viability; higher = more inhibition;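 further: normalised to DMSO-only wells as negative and benzethonium chloride as positive control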
Stated Conditions: 72 h; 2.5 nM

Compound	Subject Of Test	percent inhibition of viability (%)
COc1ccc(CCc2nc3cc(-c4c(C)noc4C)ccc3n2C[C@H](C)N2CCOCC2)cc1Cl [SGC-CBP30] (max concentration tested 25000 nM)	NK-92 (IL-2 2.5 ng/mL)	-16.2
CCN1CCN(Cc2ccc(Nc3ncc(F)c(-c4cc(F)c5nc(C)n(C(C)C)c5c4)n3)nc2)CC1 [Abemaciclib] (max concentration tested 2500 nM)	NK-92 (IL-2 2.5 ng/mL)	0.87
CC(C)(O)CC(=O)NCCn1ccc2ncnc(Nc3ccc(Oc4cccc(C(F)(F)F)c4)c(Cl)c3)c21 [TAK-285] (max concentration tested 2500 nM)	NK-92 (IL-2 2.5 ng/mL)	-1.52
Cn1cc(-c2cnn3c(N)c(Br)c([C@@H]4CCCNC4)nc23)cn1 [MK-8776] (max concentration tested 2500 nM)	NK-92 (IL-2 2.5 ng/mL)	3.64

---

Test system: NK-YS (IL-2 2.5 ng/mL)
Experimental Details: percent inhibition of viability; higher = more inhibition
Stated Conditions: 72 h; 100 nM

Molecule	percent inhibition of viability [%]
CCc1cncnc1N1CCN(Cc2nc3ccc(C(F)(F)F)cc3[nH]2)CC1 (max concentration tested 10000 nM)	-2.77
CC(=O)O[C@@]12CO[C@@H]1C[C@H](O)[C@@]1(C)C(=O)[C@H](O)C3=C(C)[C@@H](OC(=O)[C@H](O)[C@@H](NC(=O)OC(C)(C)C)c4ccccc4)C[C@@](O)([C@@H](OC(=O)c4ccccc4)[C@H]21)C3(C)C [Docetaxel] (max concentration tested 1000 nM)	77.7
Nc1nc2[nH]cnc2c(=S)[nH]1 [Thioguanine] (max concentration tested 10000 nM)	13.5
COc1cc(C(=O)O)ccc1NC(=O)[C@@H]1N[C@@H](CC(C)(C)C)[C@](C#N)(c2ccc(Cl)cc2F)[C@H]1c1cccc(Cl)c1F [RG7388] (max concentration tested 10000 nM)	53.1
CCn1cc(-c2ccnc3[nH]c(-c4cccc(CN(C)C)c4)cc23)c(-c2ccc(NC(=O)N(C)C)cc2)n1 (max concentration tested 1000 nM)	69.9
CNC(=O)c1ccc(N2C(=S)N(c3ccc(C#N)c(C(F)(F)F)c3)C(=O)C23CCC3)cc1F [RD162] (max concentration tested 10000 nM)	-9.33
NC(=O)N1CCC(CC(=O)N2CCC([C@H]3c4ncc(Br)cc4CCc4cc(Cl)cc(Br)c43)CC2)CC1 [Lonafarnib] (max concentration tested 10000 nM)	13.2

---

# Lookup of reported percent inhibition of viability keyed by entry
Test system: normal primary NK cells, pool 3 (3 donors) (IL-2 2.5 ng/mL)
Experimental Details: percent inhibition of viability; higher = more inhibition
Stated Conditions: 72 h; 1000 nM

Compound	percent inhibition of viability, %
Nc1nc2[nH]cc(CCc3ccc(C(=O)N[C@@H](CCC(=O)O)C(=O)O)cc3)c2c(=O)[nH]1 [Pemetrexed] (max concentration tested 10000 nM)	-11.4
Cc1cnc(Nc2ccc(OCCN3CCCC3)cc2)nc1Nc1cccc(S(=O)(=O)NC(C)(C)C)c1 [Fedratinib] (max concentration tested 10000 nM)	68.8
CS(=O)(=O)c1ccc(-c2cnc(N)c(C(=O)Nc3ccccc3)n2)cc1 [VE-821] (max concentration tested 10000 nM)	0.23
